Experiment: In vivo pharmacokinetic study in rats
Conditions: both sexes, Sprague-Dawley, plasma, iv; rat, i.v. 10 mg/kg, single dose; n = 6, Mean ± SD
OBSERVABLE: Tmax (min)

• COc1ccc2c3ccnc(C)c3n(CCCOC(=O)/C=C/c3ccccc3[N+](=O)[O-])c2c1 [Compound 3c] = 4.98

---

Assay: In vivo pharmacokinetic study in rats
Conditions: both sexes, Sprague-Dawley, plasma, oral; rat, i.g. 40 mg/kg vs i.v. 10 mg/kg, from AUC0→∞
OBSERVABLE: bioavailability (%)

* COc1ccc2c3ccnc(C)c3n(CCCOC(=O)/C=C/c3ccccc3[N+](=O)[O-])c2c1 [Compound 3c] | 6.9

---

Catalogue of MIC values
Tested on: Escherichia coli CICC 10389 (E. coli)
Test: MIC, microplate dilution method
Type: cell-based
Details: Gram-negative, Mueller-Hinton broth, 37 °C, 18–24 h, read-out: MIC E. coli
OBSERVABLE: MIC (µg/mL)

- COc1ccc(/C=C/C(=O)OCCCCCn2c3cc(OC)ccc3c3ccnc(C)c32)cc1: 250
- COc1ccc2c3ccnc(C)c3n(CCCCOC(=O)/C=C/c3ccccc3[N+](=O)[O-])c2c1: 775
- COc1ccc2c3ccnc(C)c3n(CCCCCOC(=O)/C=C/c3cc(OC)c(OC)c(OC)c3)c2c1: 1140
- COc1ccc(/C=C/C(=O)OCCCn2c3cc(OC)ccc3c3ccnc(C)c32)cc1: 650
- COc1ccc2c3ccnc(C)c3n(CCCOC(=O)/C(=C/c3cc(OC)c(OC)c(OC)c3)c3ccc(OC)c(OC)c3)c2c1: 725
- COc1ccc2c3ccnc(C)c3n(CCCCCOC(=O)/C=C/c3ccccc3[N+](=O)[O-])c2c1: 220
- COc1ccc2c3ccnc(C)c3n(CCCOC(=O)/C=C/c3cc(OC)c(OC)c(OC)c3)c2c1: 638
- O=C(O)/C=C/c1ccccc1: 1120
- COc1ccc(/C=C/C(=O)OCCCCn2c3cc(OC)ccc3c3ccnc(C)c32)cc1: 152
- COc1ccc2c3ccnc(C)c3n(CCCCCCOC(=O)/C(=C/c3cc(OC)c(OC)c(OC)c3)c3ccc(OC)c(OC)c3)c2c1: 212
- COc1ccc2c3ccnc(C)c3n(CCCCCCOC(=O)/C=C/c3cc(OC)c(OC)c(OC)c3)c2c1: 305
- COc1ccc2c3ccnc(C)c3n(CCCCCOC(=O)/C(=C/c3cc(OC)c(OC)c(OC)c3)c3ccc(OC)c(OC)c3)c2c1: 762
- COc1ccc2c3ccnc(C)c3n(CCCCCCOC(=O)/C=C/c3ccccc3[N+](=O)[O-])c2c1: 750
- COc1ccc2c3ccnc(C)c3n(CCCCOC(=O)/C(=C/c3cc(OC)c(OC)c(OC)c3)c3ccc(OC)c(OC)c3)c2c1: 212
- COc1ccc2c3ccnc(C)c3n(CCCCOC(=O)/C=C/c3cc(OC)c(OC)c(OC)c3)c2c1: 450
- COc1ccc(/C=C/C(=O)OCCCCCCn2c3cc(OC)ccc3c3ccnc(C)c32)cc1: 662
- COc1ccc2c3ccnc(C)c3n(CCCOC(=O)/C=C/c3ccccc3[N+](=O)[O-])c2c1: 219

---

Assay: In vivo pharmacokinetic study in rats
Details: both sexes, Sprague-Dawley, plasma, po; rat, i.g. 40 mg/kg, single dose; n = 6, Mean ± SD
OBSERVABLE: Tmax (min)

* COc1ccc2c3ccnc(C)c3n(CCCOC(=O)/C=C/c3ccccc3[N+](=O)[O-])c2c1 | 15

---

Assay: In vivo pharmacokinetic study in rats
Conditions: both sexes, Sprague-Dawley, plasma, iv; rat, i.v. 10 mg/kg, single dose; n = 6, Mean ± SD
Protocol: Adult males and females Sprague Dawley rats, with average weight of 200–250 g, were purchased from the Experiment Animal Center of Lanzhou University (Lanzhou, China). The rats were housed under an environmentally controlled room for one week before staring the experiment. […] The obtained data were analyzed using a non-compartment open model with PKsolver Software. Pharmacokinetic parameters and the experiment data were expressed as the mean ± standard deviation (SD). […]
OBSERVABLE: MRT (h)

* COc1ccc2c3ccnc(C)c3n(CCCOC(=O)/C=C/c3ccccc3[N+](=O)[O-])c2c1 [Compound 3c] | 2.86

---

Experiment: In vivo pharmacokinetic study in rats
Conditions: both sexes, Sprague-Dawley, plasma, iv; rat, i.v. 10 mg/kg, single dose; n = 6, Mean ± SD
Procedure: Adult males and females Sprague Dawley rats, with average weight of 200–250 g, were purchased from the Experiment Animal Center of Lanzhou University (Lanzhou, China). The rats were housed under an environmentally controlled room for one week before staring the experiment. […] The obtained data were analyzed using a non-compartment open model with PKsolver Software. Pharmacokinetic parameters and the experiment data were expressed as the mean ± standard deviation (SD). […]
OBSERVABLE: Cmax (ng/mL)

- COc1ccc2c3ccnc(C)c3n(CCCOC(=O)/C=C/c3ccccc3[N+](=O)[O-])c2c1: 837

---

Catalogue of melting point values
OBSERVABLE: melting point

• COc1ccc2c3ccnc(C)c3n(CCCOC(=O)/C=C/c3ccccc3[N+](=O)[O-])c2c1 = 128.6 to 129.3 °C
• COc1ccc(/C=C/C(=O)OCCCn2c3cc(OC)ccc3c3ccnc(C)c32)cc1 = 133.2 to 133.9 °C
• COc1ccc2c3ccnc(C)c3n(CCCCCCOC(=O)/C=C/c3ccccc3[N+](=O)[O-])c2c1 = 117.3 to 119.9 °C
• COc1ccc2c3ccnc(C)c3n(CCCCCOC(=O)/C(=C/c3cc(OC)c(OC)c(OC)c3)c3ccc(OC)c(OC)c3)c2c1 = 117.4 to 119.9 °C
• COc1ccc2c3ccnc(C)c3n(CCCOC(=O)/C=C/c3cc(OC)c(OC)c(OC)c3)c2c1 = 102.6 to 104.2 °C
• COc1ccc2c3ccnc(C)c3n(CCCCOC(=O)/C=C/c3ccccc3[N+](=O)[O-])c2c1 = 130.9 to 132.2 °C
• COc1ccc(/C=C/C(=O)OCCCCCn2c3cc(OC)ccc3c3ccnc(C)c32)cc1 = 91.1 to 92.3 °C

---

Test: In vivo pharmacokinetic study in rats
Conditions: both sexes, Sprague-Dawley, plasma, po; rat, i.g. 40 mg/kg, single dose; n = 6, Mean ± SD
OBSERVABLE: half-life (h)

- COc1ccc2c3ccnc(C)c3n(CCCOC(=O)/C=C/c3ccccc3[N+](=O)[O-])c2c1 [Compound 3c]: 1.3

---

Catalogue of melting point values
OBSERVABLE: melting point

* COc1ccc(/C=C/C(=O)OCCCCCCn2c3cc(OC)ccc3c3ccnc(C)c32)cc1 [Compound 6a] | 88.7 to 90.4 °C
* COc1ccc2c3ccnc(C)c3n(CCCOC(=O)/C(=C/c3cc(OC)c(OC)c(OC)c3)c3ccc(OC)c(OC)c3)c2c1 [Compound 3d] | 173.6 to 175.2 °C
* COc1ccc2c3ccnc(C)c3n(CCCCCOC(=O)/C=C/c3ccccc3[N+](=O)[O-])c2c1 [Compound 5c] | 127.4 to 130 °C
* COc1ccc(/C=C/C(=O)OCCCCn2c3cc(OC)ccc3c3ccnc(C)c32)cc1 [Compound 4a] | 118.7 to 120.2 °C
* COc1ccc2c3ccnc(C)c3n(CCCCOC(=O)/C=C/c3cc(OC)c(OC)c(OC)c3)c2c1 [Compound 4b] | 95.7 to 96.3 °C
* COc1ccc2c3ccnc(C)c3n(CCCCOC(=O)/C(=C/c3cc(OC)c(OC)c(OC)c3)c3ccc(OC)c(OC)c3)c2c1 [Compound 4d] | 95.7 to 97.4 °C
* COc1ccc2c3ccnc(C)c3n(CCCCCCOC(=O)/C(=C/c3cc(OC)c(OC)c(OC)c3)c3ccc(OC)c(OC)c3)c2c1 [Compound 6d] | 113.1 to 115 °C
* COc1ccc2c3ccnc(C)c3n(CCCCCCOC(=O)/C=C/c3cc(OC)c(OC)c(OC)c3)c2c1 [Compound 6b] | 73.7 to 73.9 °C
* COc1ccc2c3ccnc(C)c3n(CCCCCOC(=O)/C=C/c3cc(OC)c(OC)c(OC)c3)c2c1 [Compound 5b] | 103.7 to 104.7 °C

---

Tested on: Staphylococcus albus CICC 20237 (S. albus)
Assay: MIC, microplate dilution method
Format: cell-based
Details: Gram-positive; Mueller-Hinton broth, 37 °C, 18–24 h; read-out: MIC S. albus
Catalogue of MIC values
OBSERVABLE: MIC (µg/mL)

- COc1ccc2c3ccnc(C)c3n(CCCCOC(=O)/C(=C/c3cc(OC)c(OC)c(OC)c3)c3ccc(OC)c(OC)c3)c2c1: 53.1
- COc1ccc2c3ccnc(C)c3n(CCCCOC(=O)/C=C/c3ccccc3[N+](=O)[O-])c2c1: 1550
- COc1ccc(/C=C/C(=O)OCCCCCCn2c3cc(OC)ccc3c3ccnc(C)c32)cc1: 166
- O=C(O)/C=C/c1ccccc1: 1120
- COc1ccc2c3ccnc(C)c3n(CCCCCCOC(=O)/C=C/c3ccccc3[N+](=O)[O-])c2c1: 750
- COc1ccc2c3ccnc(C)c3n(CCCCCCOC(=O)/C=C/c3cc(OC)c(OC)c(OC)c3)c2c1: 152
- COc1ccc2c3ccnc(C)c3n(CCCCCOC(=O)/C=C/c3ccccc3[N+](=O)[O-])c2c1: 110
- COc1ccc(/C=C/C(=O)OCCCCn2c3cc(OC)ccc3c3ccnc(C)c32)cc1: 305
- COc1ccc(/C=C/C(=O)OCCCn2c3cc(OC)ccc3c3ccnc(C)c32)cc1: 650
- COc1ccc2c3ccnc(C)c3n(CCCOC(=O)/C=C/c3ccccc3[N+](=O)[O-])c2c1: 13.7
- COc1ccc2c3ccnc(C)c3n(CCCCCOC(=O)/C=C/c3cc(OC)c(OC)c(OC)c3)c2c1: 2280
- COc1ccc2c3ccnc(C)c3n(CCCCCCOC(=O)/C(=C/c3cc(OC)c(OC)c(OC)c3)c3ccc(OC)c(OC)c3)c2c1: 53.1
- COc1ccc(/C=C/C(=O)OCCCCCn2c3cc(OC)ccc3c3ccnc(C)c32)cc1: 15.6
- COc1ccc2c3ccnc(C)c3n(CCCCCOC(=O)/C(=C/c3cc(OC)c(OC)c(OC)c3)c3ccc(OC)c(OC)c3)c2c1: 95.3
- COc1ccc2c3ccnc(C)c3n(CCCCOC(=O)/C=C/c3cc(OC)c(OC)c(OC)c3)c2c1: 225
- COc1ccc2c3ccnc(C)c3n(CCCOC(=O)/C(=C/c3cc(OC)c(OC)c(OC)c3)c3ccc(OC)c(OC)c3)c2c1: 725
- COc1ccc2c3ccnc(C)c3n(CCCOC(=O)/C=C/c3cc(OC)c(OC)c(OC)c3)c2c1: 638
